- assay comment: Biodistribution studies of 11C tracers
- Type: in vivo, Wistar rats
- run parameters: 60 min p.i.
measured attribute: % ID Lungs (% ID)
Give bare numbers, in % ID.

[11CH3]Oc1ccc(F)cc1C1CCN(c2ccn3c(CC4CC4)nnc3c2Cl)CC1 [[^11C]B-4]	0.5

Quick batch: % ID Lungs for everything below.
1. [11CH3]Oc1c(F)ccc(F)c1C1CCN(c2ccn3c(CC4CC4)nnc3c2C(F)(F)F)CC1 [[^11C]B-3]
2. [11CH3]Oc1cc(F)cc(F)c1C1CCN(c2ccn3c(CC4CC4)nnc3c2Cl)CC1 [[^11C]B-7]
3. [11CH3]Oc1c(F)ccc(F)c1C1CCN(c2ccn3c(CC4CC4)nnc3c2Cl)CC1 [[^11C]B-2]
4. [11CH3]Oc1ccc(F)c(F)c1C1CCN(c2ccn3c(CC4CC4)nnc3c2Cl)CC1 [[^11C]B-10]
5. [11CH3]Oc1cccc(F)c1C1CCN(c2ccn3c(CC4CC4)nnc3c2Cl)CC1 [[^11C]B-6]

0.7
0.7
0.6
0.7
0.6

Reference for the values: patent US20130230459A1
